Consider the following compounds; for each one, report its Emmax.
# Experiment Notes: Absorbance and fluorescence spectra of 5-R-UMP analogues
# Assay type: physicochemical
# Recorded Conditions: fluorescence emission
Answer as a quantity: numeral, then unit.

I have this compound here, "COc1ccc(-c2cn([C@@H]3O[C@H](COP(=O)(O)O)[C@@H](O)[C@H]3O)c(=O)[nH]c2=O)cc1" , and I need its recorded Emmax.
444 nm

I have this compound here, "O=Cc1ccc(-c2cn([C@@H]3O[C@H](COP(=O)(O)O)[C@@H](O)[C@H]3O)c(=O)[nH]c2=O)s1" , and I need its recorded Emmax.
434 nm

I have this compound here, "CC(=O)c1ccc(-c2cn([C@@H]3O[C@H](COP(=O)(O)O)[C@@H](O)[C@H]3O)c(=O)[nH]c2=O)s1" , and I need its recorded Emmax.
433 nm

I have this compound here, "O=c1[nH]c(=O)n([C@@H]2O[C@H](COP(=O)(O)O)[C@@H](O)[C@H]2O)cc1-c1ccccc1O" , and I need its recorded Emmax.
415 nm

I have this compound here, "COc1cncc(-c2cn([C@@H]3O[C@H](COP(=O)(O)O)[C@@H](O)[C@H]3O)c(=O)[nH]c2=O)c1" , and I need its recorded Emmax.
414 nm

I have this compound here, "O=Cc1ccsc1-c1cn([C@@H]2O[C@H](COP(=O)(O)O)[C@@H](O)[C@H]2O)c(=O)[nH]c1=O" , and I need its recorded Emmax.
453 nm

I have this compound here, O=c1[nH]c(=O)n([C@@H]2O[C@H](COP(=O)(O)O)[C@@H](O)[C@H]2O)cc1-c1ccccc1 [2a, 5-Phenyluridine-5′-monophosphate] , and I need its recorded Emmax.
403 nm
